Cited source: ChEMBL document CHEMBL4680201

- target: Tyrosine-protein kinase JAK2 (Homo sapiens)
- Type: ADME
pIC50: −log10 of the molar value.
Criterion: pIC50 meeting or surpassing 6. Met: label 1. Not met: label 0.

Solved cases (5 shown):
{"columns": ["smiles-record", "cat"],
 "data": [
  ["C/C=C/C(=O)Nc1ccc(-c2ccnc(Nc3cnn(CCOC)c3)n2)cc1", "label 0"],
  ["C=CC(=O)Nc1cccc(-c2cc(Nc3cnn(CCN(C)C)c3)ncn2)c1", "label 0"],
  ["C=CC(=O)Nc1ccc(-c2cc(Nc3cnn(CCOC)c3)ncn2)cc1", "label 0"],
  ["C/C=C/C(=O)Nc1cccc(-c2cc(Nc3cnn(CCOC)c3)ncn2)c1", "label 0"],
  ["CNC(=O)Cn1cc(Nc2cc(-c3cccc(NC(=O)CNC(=O)CC#N)c3)ncn2)cn1", "label 0"]
]}

Please indicate if the recorded pIC50 for C=CC(=O)Nc1cccc(-c2cc(Nc3ccc(N4CCOCC4)cc3)ncn2)c1 meets or exceeds 6.
label 0

Please indicate if the recorded pIC50 for N#CCC(=O)Nc1cccc(-c2ccnc(Nc3ccc(N4CCOCC4)cc3)n2)c1 meets or exceeds 6.
label 1

Please indicate if the recorded pIC50 for C=CC(=O)Nc1ccc(-c2cc(Nc3ccc(N4CCOCC4)cc3)ncn2)cc1 meets or exceeds 6.
label 0

Please indicate if the recorded pIC50 for C=CC(=O)Nc1cccc(-c2cc(Nc3cnn(C)c3)ncn2)c1 meets or exceeds 6.
label 0

Please indicate if the recorded pIC50 for C/C=C/C(=O)Nc1cccc(-c2cc(Nc3ccc(N4CCOCC4)cc3)ncn2)c1 meets or exceeds 6.
label 0

###

- target: Tyrosine-protein kinase JAK1 (Homo sapiens, UniProt P23458)
- Sequence (P23458 whole entry, the tested form may be a part): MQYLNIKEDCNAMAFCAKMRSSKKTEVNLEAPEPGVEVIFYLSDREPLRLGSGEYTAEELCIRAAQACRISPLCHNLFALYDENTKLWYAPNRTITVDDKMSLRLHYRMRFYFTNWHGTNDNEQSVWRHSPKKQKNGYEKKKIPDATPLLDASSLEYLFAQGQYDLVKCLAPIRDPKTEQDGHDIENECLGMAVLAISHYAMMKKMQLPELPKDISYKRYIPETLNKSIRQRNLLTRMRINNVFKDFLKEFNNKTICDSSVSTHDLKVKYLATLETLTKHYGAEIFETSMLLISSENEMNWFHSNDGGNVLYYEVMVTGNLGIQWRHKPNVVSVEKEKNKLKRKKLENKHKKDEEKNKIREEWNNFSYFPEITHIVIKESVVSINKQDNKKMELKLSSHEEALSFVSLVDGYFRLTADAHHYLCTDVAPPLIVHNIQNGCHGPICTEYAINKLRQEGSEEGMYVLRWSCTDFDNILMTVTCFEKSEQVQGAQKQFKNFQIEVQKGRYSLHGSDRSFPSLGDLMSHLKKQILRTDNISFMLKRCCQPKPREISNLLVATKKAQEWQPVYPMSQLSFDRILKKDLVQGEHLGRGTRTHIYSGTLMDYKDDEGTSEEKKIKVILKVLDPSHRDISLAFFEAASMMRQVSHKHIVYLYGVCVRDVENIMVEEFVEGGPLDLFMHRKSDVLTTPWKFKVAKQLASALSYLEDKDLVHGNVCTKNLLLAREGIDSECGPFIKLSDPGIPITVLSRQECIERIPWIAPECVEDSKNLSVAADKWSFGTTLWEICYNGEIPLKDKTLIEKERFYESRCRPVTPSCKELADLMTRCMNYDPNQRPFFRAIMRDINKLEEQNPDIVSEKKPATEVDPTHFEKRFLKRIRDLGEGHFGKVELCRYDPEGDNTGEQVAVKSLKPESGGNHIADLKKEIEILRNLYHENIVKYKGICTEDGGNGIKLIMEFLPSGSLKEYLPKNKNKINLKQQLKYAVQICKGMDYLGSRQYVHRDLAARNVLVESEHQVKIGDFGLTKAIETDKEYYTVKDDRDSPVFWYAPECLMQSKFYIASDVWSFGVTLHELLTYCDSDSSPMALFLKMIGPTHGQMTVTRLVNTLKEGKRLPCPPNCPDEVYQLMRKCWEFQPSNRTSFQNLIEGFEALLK
- assay-remarks: Inhibition of recombinant human GST-tagged JAK1 cytoplasmic domain (866 to 1154 residues) expressed in baculovirus expression system using TK-substrate-biotin preincubated for 5 mins followed by substrate addition and measured after 30 mins by HTRF assay
Give IC50 for every item shown.
Answers are plain numbers, in nM.

Worked cases, IC50 given:
{"columns": ["smiles-record", "unit", "IC50"],
 "data": [
  ["C=CC(=O)Nc1cccc(-c2cc(Nc3cnn(C)c3)ncn2)c1", "nM", 657],
  ["C=CC(=O)Nc1ccc(-c2cc(Nc3cnn(CCOC)c3)ncn2)cc1", "nM", 1660],
  ["C=CC(=O)NCC(=O)Nc1cccc(-c2cc(Nc3ccc(N4CCOCC4)cc3)ncn2)c1", "nM", 354],
  ["Cn1cc(Nc2cc(-c3cccc(NC(=O)CC#N)c3)ncn2)cn1", "nM", 854]
]}

Pending molecule:
IC50 reported for this molecule N#CCC(=O)Nc1ccc(-c2ccnc(Nc3ccc(N4CCOCC4)cc3)n2)cc1 : 433

###

- target: Tyrosine-protein kinase JAK2 (Homo sapiens, UniProt O60674)
- Sequence (O60674 whole entry): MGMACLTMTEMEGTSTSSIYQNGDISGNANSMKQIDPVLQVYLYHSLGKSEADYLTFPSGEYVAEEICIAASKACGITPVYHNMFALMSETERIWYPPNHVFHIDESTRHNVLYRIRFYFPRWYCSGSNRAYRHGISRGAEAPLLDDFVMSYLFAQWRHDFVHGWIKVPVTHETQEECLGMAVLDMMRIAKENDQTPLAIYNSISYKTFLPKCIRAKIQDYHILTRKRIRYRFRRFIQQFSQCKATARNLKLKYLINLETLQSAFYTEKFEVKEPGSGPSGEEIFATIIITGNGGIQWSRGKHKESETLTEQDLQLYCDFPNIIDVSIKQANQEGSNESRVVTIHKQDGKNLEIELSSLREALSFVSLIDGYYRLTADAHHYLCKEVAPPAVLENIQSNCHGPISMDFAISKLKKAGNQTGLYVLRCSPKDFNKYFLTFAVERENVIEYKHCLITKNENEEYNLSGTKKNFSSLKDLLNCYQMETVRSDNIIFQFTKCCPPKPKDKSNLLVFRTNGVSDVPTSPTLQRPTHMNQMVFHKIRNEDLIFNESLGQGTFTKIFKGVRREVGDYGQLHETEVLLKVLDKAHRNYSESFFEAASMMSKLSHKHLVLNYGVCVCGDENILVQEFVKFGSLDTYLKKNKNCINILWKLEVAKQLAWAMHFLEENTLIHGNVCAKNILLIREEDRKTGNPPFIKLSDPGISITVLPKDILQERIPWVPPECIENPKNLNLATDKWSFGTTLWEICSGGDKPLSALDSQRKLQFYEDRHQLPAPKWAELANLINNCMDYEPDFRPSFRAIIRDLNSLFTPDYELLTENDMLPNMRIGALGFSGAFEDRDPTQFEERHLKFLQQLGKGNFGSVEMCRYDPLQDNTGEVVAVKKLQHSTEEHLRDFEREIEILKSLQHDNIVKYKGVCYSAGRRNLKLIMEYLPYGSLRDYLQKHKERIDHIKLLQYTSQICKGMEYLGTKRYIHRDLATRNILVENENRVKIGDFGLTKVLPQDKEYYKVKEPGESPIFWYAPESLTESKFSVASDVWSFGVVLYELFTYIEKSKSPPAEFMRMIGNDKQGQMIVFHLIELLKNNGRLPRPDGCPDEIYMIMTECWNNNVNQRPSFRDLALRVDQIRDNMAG
- Type: ADME
measure: IC50 (µM)
Give bare numbers, in µM.

Worked cases, IC50 given:
{"columns": ["smiles-record", "IC50 (µM)"],
 "data": [
  ["N#CCC(=O)Nc1cccc(-c2cc(Nc3ccc(N4CCOCC4)cc3)ncn2)c1", 0.734],
  ["C/C=C/C(=O)NCC(=O)Nc1cccc(-c2cc(Nc3cnn(CCOC)c3)ncn2)c1", 0.886],
  ["N#CCC(=O)Nc1cccc(-c2cc(Nc3cnn(CCO)c3)ncn2)c1", 1.14],
  ["C=CC(=O)Nc1cccc(-c2ccnc(Nc3cnn(CCOC)c3)n2)c1", 1.29],
  ["C=CC(=O)NCC(=O)Nc1cccc(-c2cc(Nc3cnn(CCOC)c3)ncn2)c1", 1.54]
]}

Answer for every listed entry: what is its IC50? The entries follow.
1. N#CCC(=O)NCC(=O)Nc1cccc(-c2cc(Nc3ccc(N4CCOCC4)cc3)ncn2)c1
2. C/C=C/C(=O)Nc1ccc(-c2ccnc(Nc3ccc(N4CCOCC4)cc3)n2)cc1
3. C/C=C/C(=O)Nc1cccc(-c2cc(Nc3cnn(C)c3)ncn2)c1
4. COCCn1cc(Nc2cc(-c3cccc(NC(=O)CC#N)c3)ncn2)cn1
5. C/C=C/C(=O)Nc1cccc(-c2cc(Nc3cnn(CC(=O)NC)c3)ncn2)c1

1. 0.309
2. 1.41
3. 2.76
4. 0.587
5. 1.11

Answer for every listed entry: what is its IC50? The entries follow.
1. C=CC(=O)Nc1cccc(-c2cc(Nc3cnn(CCOC)c3)ncn2)c1
2. C/C=C/C(=O)Nc1cccc(-c2cc(Nc3cnn(CCO)c3)ncn2)c1
3. C=CC(=O)Nc1ccc(-c2ccnc(Nc3cnn(CCOC)c3)n2)cc1
4. C=CC(=O)Nc1ccc(-c2ccnc(Nc3ccc(N4CCOCC4)cc3)n2)cc1

1: 2.85; 2: 2.81; 3: 1.08; 4: 1
